biological target: Histone deacetylase 2 (Homo sapiens); assay: Inhibition of full-length recombinant human C-terminal GST tagged HDAC2 expressed in Sf9 insect cells using aminoluciferin peptide substrate at 100 nM preincubated for 3 hrs followed by substrate addition and measured after 30 mins by HDAC-Glo I/II chemiluminescence assay; settings: time 3.5 hrs
Sequence (Q92769 whole entry): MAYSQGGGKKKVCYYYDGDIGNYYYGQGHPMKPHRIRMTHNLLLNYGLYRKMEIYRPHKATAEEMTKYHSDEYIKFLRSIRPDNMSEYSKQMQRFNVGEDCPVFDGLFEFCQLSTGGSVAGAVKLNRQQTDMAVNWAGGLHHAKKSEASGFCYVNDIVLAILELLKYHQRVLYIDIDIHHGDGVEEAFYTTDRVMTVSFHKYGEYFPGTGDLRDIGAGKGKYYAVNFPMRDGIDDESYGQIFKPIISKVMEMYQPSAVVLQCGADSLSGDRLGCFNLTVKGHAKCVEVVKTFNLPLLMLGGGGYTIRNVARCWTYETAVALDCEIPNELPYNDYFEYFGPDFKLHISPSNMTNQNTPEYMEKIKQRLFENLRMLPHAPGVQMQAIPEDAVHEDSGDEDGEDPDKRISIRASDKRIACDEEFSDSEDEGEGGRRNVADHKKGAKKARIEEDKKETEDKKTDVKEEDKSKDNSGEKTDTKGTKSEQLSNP
PROPERTY NAME: inhibition (%)
Write the value in % as a bare number.

Known results for molecules:
MOLECULE: Nc1ccc(-c2ccc(F)cc2)cc1NC(=O)c1cn(C[S+]([O-])c2ccccc2)nn1 (stereo unspecified)
inhibition (%): 0
//
MOLECULE: Nc1ccc(-c2ccc(F)cc2)cc1NC(=O)c1cn(CCc2cccc(C(F)(F)F)c2)nn1
inhibition (%): 0
//
MOLECULE: Nc1ccc(-c2cccs2)cc1NC(=O)c1ccc(-c2cn(CCc3ccccc3Cl)nn2)cc1
inhibition (%): 5
//
MOLECULE: Nc1ccc(-c2cccs2)cc1NC(=O)c1cn(CC(=O)c2ccccc2)nn1
inhibition (%): 15
//
MOLECULE: Nc1ccc(-c2ccccc2)cc1NC(=O)c1cn(CCc2ccc(F)cc2)nn1
inhibition (%): 0

Then there is this molecule:
Entry `Nc1ccc(-c2ccccc2)cc1NC(=O)c1cn(/C=C/c2ccccc2)nn1` has what inhibition?
3
